Known fold change (FC) of a selection of molecules
- Experimental system: Vitamin D3 receptor (Mus musculus) (UniProt P48281)
- Sequence (whole entry): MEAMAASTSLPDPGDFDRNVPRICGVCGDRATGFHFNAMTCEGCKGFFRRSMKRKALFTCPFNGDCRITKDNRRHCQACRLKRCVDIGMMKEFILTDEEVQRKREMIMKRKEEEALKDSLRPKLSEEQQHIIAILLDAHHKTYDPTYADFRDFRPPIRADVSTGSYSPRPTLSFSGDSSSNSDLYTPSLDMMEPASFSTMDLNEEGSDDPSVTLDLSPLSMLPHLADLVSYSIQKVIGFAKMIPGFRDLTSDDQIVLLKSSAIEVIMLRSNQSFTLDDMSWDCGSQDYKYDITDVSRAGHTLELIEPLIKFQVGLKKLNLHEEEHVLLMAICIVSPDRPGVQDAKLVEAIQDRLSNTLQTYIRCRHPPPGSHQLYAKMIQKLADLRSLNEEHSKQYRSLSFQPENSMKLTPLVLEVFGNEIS
- Test summary: Activation of VDR in mouse C3H10T1/2 cells assessed as upregulation of CYP24A1 mRNA expression at 5 uM after 24 hrs by RT-PCR analysis relative to DMSO-treated control
- Assay type: cell-based
- Measurement conditions: C3H 10T1/2
Respond numerically, and do not add a unit to the figure.

• CC(C)CCC[C@@H](C)[C@H]1CC[C@H]2[C@@H](OC(=O)c3ccc4ccccc4c3)CCC[C@]12C = 3

Look up fold change (FC) for this molecule: `CC(C)CCC[C@@H](C)[C@H]1CC[C@H]2[C@@H](OC(=O)c3cccnc3)CCC[C@]12C` 17.1

# iterate: `CC(C)CCC[C@@H](C)[C@H]1CC[C@H]2[C@@H](OC(=O)c3ccoc3)CCC[C@]12C` 2.2

Now the molecule `CC(C)CCC[C@@H](C)[C@H]1CC[C@H]2[C@@H](OC(=O)c3cccs3)CCC[C@]12C` 1.6

---

- Experimental system: Vitamin D3 receptor (Mus musculus) (UniProt P48281)
- Test summary: Activation of VDR in mouse C3H10T1/2 cells assessed as upregulation of CYP24A1 mRNA expression at 5 uM after 24 hrs by RT-PCR analysis relative to DMSO-treated control
- Format: cell-based
- Measurement conditions: C3H 10T1/2
Form field: fold change (FC) (one value per entry).
Hey, just send me the number, nothing else.

• CC(C)CCC[C@@H](C)[C@H]1CC[C@H]2[C@@H](OC(=O)c3cc4ccccc4[nH]3)CCC[C@]12C = 2.7

Would you kindly share the measured fold change (FC) for `CC(C)CCC[C@@H](C)[C@H]1CC[C@H]2[C@@H](OC(=O)c3cccnc3O)CCC[C@]12C` ? 7.5

Next: `CC(C)CCC[C@@H](C)[C@H]1CC[C@H]2[C@@H](OC(=O)c3ccccc3O)CCC[C@]12C` 1.2

Follow-up entry: `CC(C)CCC[C@@H](C)[C@H]1CC[C@H]2[C@@H](OC(=O)c3cccc4ccccc34)CCC[C@]12C` 2.7

Request: `CC(C)CCC[C@@H](C)[C@H]1CC[C@H]2[C@@H](O)CCC[C@]12C` 3.6

Please do the same for `CC(C)CCC[C@@H](C)[C@H]1CC[C@H]2[C@@H](OC(=O)c3ccsc3)CCC[C@]12C` as well. 1.3

Note, next up: `CC(C)CCC[C@@H](C)[C@H]1CC[C@H]2[C@@H](OC(=O)c3cccc(O)c3)CCC[C@]12C` 22.2
